The reported numbers originate from the supplement of paper PMC11208160.

- Procedure summary: recombinant UMI read abundance after kanamycin selection (control-corrected) (log10(CPM+1)); higher = more efficient recombination; extreme values may be limits of the assay; sequences stand for … in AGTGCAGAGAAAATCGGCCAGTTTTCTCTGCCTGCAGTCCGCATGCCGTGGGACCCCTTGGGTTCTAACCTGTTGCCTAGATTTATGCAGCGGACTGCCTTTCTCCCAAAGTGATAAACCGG…AGGTTGGTTTCACT; site = the 11-nt donor;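 further: IS621 bridge recombinase in Escherichia coli cells against a fixed T5 target plasmid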
Short version: recombinant UMI read abundance (log10) at least 0.004 is yes (1), less is no (0).

Chain sequence: TGGCGGGCATGGACCGGTTTTCCCGGTAATCCGTATTTGGC (site TGGCCGGCTGC)
Cat: yes (1)

Chain sequence: AAGCCGGCATGGACCGGTTTTCCCGGTAATCCGTATTTGGC (site AAGCCGGCTGC)
Cat: no (0)

Chain sequence: CAAGCAGCATGGACCGGTTTTCCCGGTAATCCGTATTTGAT (site CAAGCAGCTAA)
Cat: yes (1)

Chain sequence: CAAGGCTCATGGACCGGTTTTCCCGGTAATCCGTATTTGAA (site CAACGCTCTTT)
Cat: no (0)

Q: Check the entry CGTGCAACATGGACCGGTTTTCCCGGTAATCCGTATTTGTT (site CGTGTAACTAA) : does recombinant UMI read abundance (log10) equal or exceed 0.004?
A: no (0)
